target: HLA-B*35:01; assay: IEDB peptide-MHC binding, purified MHC/direct/fluorescence; filed as Kd, often an IC50 or EC50 that approximates it; bounds were set here for any values at or beyond the usual limits of such assays; settings: source organism: Giardia lamblia ATCC 50803
TEST_READOUT: pKd
Give bare numbers, as −log10 of the molar value.

Would you mind giving pKd for every sequence in the list below?
1. HSSVAGGLW
2. IPRQWHPFA

Output:
[6.56, 5.96]

====

target: HLA-B*27:05; assay: IEDB peptide-MHC binding, purified MHC/direct/fluorescence; filed as Kd, often an IC50 or EC50 that approximates it; bounds were set here for any values at or beyond the usual limits of such assays; conditions: source organism: Influenza A virus (A/Hong Kong/514/97(H5N1))
TEST_READOUT: Kd

Task: Quick one: Kd of VSDGGPNLY ?
Output: ≥ 20 µM
